- Experiment: Cytotoxicity against human KBVIN cells after 72 hrs by sulforhodamine B assay
- Assay type: functional, cell-based
Property: IC50 (nM)

[
  {
    "Compound": "CC[C@@]1(O)C(=O)OCc2c1cc1n(c2=O)Cc2c-1nc1ccccc1c2CN1CCN(S(=O)(=O)c2ccc(Cl)cc2)CC1",
    "Property": "IC50",
    "Units label": "nM",
    "Censor symbol": "=",
    "Val": 20.2
  },
  {
    "Compound": "CC[C@@]1(O)C(=O)OCc2c1cc1n(c2=O)Cc2c-1nc1ccccc1c2CN1CCN(S(=O)(=O)c2cc(OC)cc(OC)c2)CC1",
    "Property": "IC50",
    "Units label": "nM",
    "Censor symbol": "=",
    "Val": 1.2
  },
  {
    "Compound": "CC[C@@]1(O)C(=O)OCc2c1cc1n(c2=O)Cc2c-1nc1ccccc1c2CN1CCN(S(=O)(=O)Cc2ccccc2)CC1",
    "Property": "IC50",
    "Units label": "nM",
    "Censor symbol": "=",
    "Val": 416
  },
  {
    "Compound": "CC[C@@]1(O)C(=O)OCc2c1cc1n(c2=O)Cc2c-1nc1ccccc1c2CN1CCN(S(=O)(=O)c2ccc(OC)cc2)CC1",
    "Property": "IC50",
    "Units label": "nM",
    "Censor symbol": "=",
    "Val": 142
  },
  {
    "Compound": "CC[C@@]1(O)C(=O)OCc2c1cc1n(c2=O)Cc2c-1nc1ccccc1c2CN1CCN(S(=O)(=O)c2cccnc2)CC1",
    "Property": "IC50",
    "Units label": "nM",
    "Censor symbol": "=",
    "Val": 327
  },
  {
    "Compound": "CC[C@@]1(O)C(=O)OCc2c1cc1n(c2=O)Cc2c-1nc1ccccc1c2CN1CCN(S(=O)(=O)c2ccccc2)CC1",
    "Property": "IC50",
    "Units label": "nM",
    "Censor symbol": "=",
    "Val": 70.4
  },
  {
    "Compound": "CCc1c2c(nc3ccc(OC(=O)N4CCC(N5CCCCC5)CC4)cc13)-c1cc3c(c(=O)n1C2)COC(=O)[C@]3(O)CC [IRINOTECAN]",
    "Property": "IC50",
    "Units label": "nM",
    "Censor symbol": ">",
    "Val": 20000
  },
  {
    "Compound": "CC[C@@]1(O)C(=O)OCc2c1cc1n(c2=O)Cc2c-1nc1ccccc1c2CN1CCN(S(=O)(=O)c2ccc(F)cc2)CC1",
    "Property": "IC50",
    "Units label": "nM",
    "Censor symbol": "=",
    "Val": 25.7
  },
  {
    "Compound": "CC[C@@]1(O)C(=O)OCc2c1cc1n(c2=O)Cc2c-1nc1ccccc1c2CN1CCN(S(=O)(=O)N(C)C)CC1",
    "Property": "IC50",
    "Units label": "nM",
    "Censor symbol": "=",
    "Val": 141
  },
  {
    "Compound": "CC[C@@]1(O)C(=O)OCc2c1cc1n(c2=O)Cc2cc3ccccc3nc2-1 [CAMPTOTHECIN]",
    "Property": "IC50",
    "Units label": "nM",
    "Censor symbol": "=",
    "Val": 15.7
  },
  {
    "Compound": "CCc1ccc(S(=O)(=O)N2CCN(Cc3c4c(nc5ccccc35)-c3cc5c(c(=O)n3C4)COC(=O)[C@]5(O)CC)CC2)cc1",
    "Property": "IC50",
    "Units label": "nM",
    "Censor symbol": "=",
    "Val": 126
  },
  {
    "Compound": "CC[C@@]1(O)C(=O)OCc2c1cc1n(c2=O)Cc2c-1nc1ccccc1c2CN1CCN(S(=O)(=O)c2ccc(C)cc2)CC1",
    "Property": "IC50",
    "Units label": "nM",
    "Censor symbol": "=",
    "Val": 34.6
  },
  {
    "Compound": "CC[C@@]1(O)C(=O)OCc2c1cc1n(c2=O)Cc2c-1nc1ccccc1c2CN1CCN(S(=O)(=O)c2ccc3ccccc3c2)CC1",
    "Property": "IC50",
    "Units label": "nM",
    "Censor symbol": "=",
    "Val": 165
  },
  {
    "Compound": "CC[C@@]1(O)C(=O)OCc2c1cc1n(c2=O)Cc2c-1nc1ccccc1c2CN1CCN(S(=O)(=O)c2cccs2)CC1",
    "Property": "IC50",
    "Units label": "nM",
    "Censor symbol": "=",
    "Val": 57.5
  },
  {
    "Compound": "CC[C@@]1(O)C(=O)OCc2c1cc1n(c2=O)Cc2c-1nc1ccccc1c2CN1CCN(S(=O)(=O)c2ccc([N+](=O)[O-])cc2)CC1",
    "Property": "IC50",
    "Units label": "nM",
    "Censor symbol": "=",
    "Val": 481
  }
]
